Assay: NCI Yeast Anticancer Drug Screen. Data for the mlh1 rad18 strain (AID 175)
Conditions: S. cerevisiae mlh1 rad18 strain growth inhibition; at 50.0 µM (retest, dose inferred, filed as 5.0)
About 79,000 compounds went through this panel and 15% of them were active in at least one assay; those are over-represented in the sample as a whole. Activity calls are given as the source filed them. No stated cut-off is given here; in the data, active means growth inhibition above about 70%; inactive means the rest.
Labels: 1 for active, 0 for inactive

>>> answer_label("C1=C(/C=C2\\CCCc3c(-c4ccccc4)cc(-c4ccccc4)[o+]c32)CCC/C1=C\\C1=C2OC(c3ccccc3)=CC(c3ccccc3)=C2CCC1")
0
>>> answer_label("COC(=O)C1=C(C(=O)OC)C2(OC(C)=O)c3ccccc3-c3ccccc3C12 (stereo unspecified)")
1
>>> answer_label("O=C([CH-]C(=O)c1ccccc1)c1ccccc1.O=C([CH-]C(=O)c1ccccc1)c1ccccc1.O=C([CH-]C(=O)c1ccccc1)c1ccccc1.[Nd+3].[OH3+]")
1
>>> answer_label("O=[N+]([O-])c1cccc([N+](=O)[O-])c1Cl")
0
>>> answer_label("C1CCNCC1.O=C([CH-]C(=O)C(F)(F)F)c1ccc2c(c1)C(=O)c1ccccc1-2.O=C([CH-]C(=O)C(F)(F)F)c1ccc2c(c1)C(=O)c1ccccc1-2.O=C([CH-]C(=O)C(F)(F)F)c1ccc2c(c1)C(=O)c1ccccc1-2.O=C([CH-]C(=O)C(F)(F)F)c1ccc2c(c1)C(=O)c1ccccc1-2.[Eu+3]")
0
>>> answer_label("CCOP(=S)(OCC)SCc1c(C)c(C)c(CSP(=S)(OCC)OCC)c(C)c1C")
0

----------
Assay: NCI Yeast Anticancer Drug Screen. Data for the cln2 rad14 strain (AID 165);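 further: 0% = growth equal to vehicle treated cultures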
Conditions: S. cerevisiae cln2 rad14 strain, at 50.0 µM (retest, dose inferred, filed as 5.0)
About 79,000 compounds went through this panel and 15% of them were active in at least one assay; those are over-represented in the sample as a whole. Active and inactive are the calls of the source. No stated cut-off is given here; in the data, active means growth inhibition above about 70%; inactive means the rest.
Outcome codes: yes for active, no for inactive

>>> answer_label("O=[N+]([O-])c1ccc(SP(=S)(c2ccccc2)c2ccccc2)c([N+](=O)[O-])c1")
"yes"
>>> answer_label("C[C@]12CC[C@H](OC3OC(CO)C(O)C(O)C3O)C[C@H]1CC[C@@H]1[C@@H]2CC[C@]2(C)[C@@H](C3=CCOC3=O)CC[C@]12O (stereo partly drawn)")
"no"
>>> answer_label("CC1(C)CC2(c3ccccc3)CC(c3ccccc3)C1C(C(=O)O)C2C(=O)O (stereo not drawn)")
"yes"
>>> answer_label("CC(=O)[O][Hg][c]1c(C)c(C)cc(C)c1C")
"yes"
>>> answer_label("c1ccc([As+](c2ccccc2)(c2ccccc2)c2cccc3ccccc23)cc1")
"yes"
>>> answer_label("CC(=O)OCC12CCC(C)=CC1OC1C(O)C(OC(C)=O)C2(C)C12CO2 (stereo not drawn)")
"yes"
>>> answer_label("CC[C@@H](C)[C@@H]1NC(=O)C(NC(=O)C(CC(C)C)N(C)C(=O)C2CCCN2C(=O)C(C)O)C(C)OC(=O)C(Cc2ccc(OC)cc2)N(C)C(=O)C2CCCN2C(=O)C(CC(C)C)NC(=O)C(C)C(=O)C(C(C)C)OC(=O)C[C@H]1O (stereo partly drawn)")
"yes"
>>> answer_label("[Cl][Sn]([CH2]c1ccccc1)([CH2]c1ccccc1)[CH2]c1ccccc1")
"yes"

----------
Experiment: NCI Yeast Anticancer Drug Screen. Data for the mec2-1 strain (AID 157)
Conditions: S. cerevisiae mec2-1 strain, at 50.0 µM (retest, dose inferred, filed as 5.0), active compounds read high
This is part of a sample that, as a whole, favours compounds with a hit. Of some 79,000 tested, about 15% had one in any assay.
Consider the following compounds and their measured growth inhibition readings.
reported.metric: growth inhibition (%)

>>> measured_number("COc1cc(C2c3[nH]c4ccccc4c3[C@@H](Nc3ccc(C#N)cc3)[C@H]3COC(=O)N23)cc(OC)c1O (stereo partly specified)")
91
>>> measured_number("CC(C)(C)OOC(=O)/C=C\\C(=O)OOC(C)(C)C")
-1
>>> measured_number("O=C1N[C@H]2[C@H](O)[C@H](O)[C@@H](O)[C@H](O)[C@@H]2c2cc3c(c(O)c21)OCO3")
70
>>> measured_number("CC(C)(C)[Si](OC(=O)N(CCCl)CCCl)(c1ccccc1)c1ccccc1")
76
>>> measured_number("Oc1c(I)cc(I)cc1I")
95
>>> measured_number("[Cl][Hg][c]1ccco1")
99
>>> measured_number("O=C(CBr)c1ccncc1")
100
>>> measured_number("S=P(OC1CC2CCC1C2)(c1ccccc1)c1ccccc1 (stereo unspecified)")
99
>>> measured_number("CC(C)c1ccc(C(c2c(O)c3ccccc3oc2=O)c2c(O)c3ccccc3oc2=O)cc1")
95
>>> measured_number("CN1CCN(c2ccc3nc(-c4ccc5nc(-c6ccc(N(C)CCCl)cc6)[nH]c5c4)[nH]c3c2)CC1")
99
>>> measured_number("CN(C)N(P(N)(Cl)(c1ccccc1)c1ccccc1)P(N)(Cl)(c1ccccc1)c1ccccc1")
97

----------
Assay: NCI Yeast Anticancer Drug Screen. Data for the sgs1 mgt1 strain (AID 161);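 further: 0% = growth of cultures given vehicle only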
Conditions: S. cerevisiae sgs1 mgt1 strain, at 50.0 µM, active compounds read high
Description: Growth inhibition of yeast strains with defined genetic alterations is measured as a screen for potential anti-cancer activity. Selected strains with alterations in DNA damage repair or cell cycle control were exposed to compounds and growth inhibition was measured relative to vehicle treated controls. The strain used in this assay is sgs1 mgt1
This is part of a sample that, as a whole, favours compounds with a hit. Of some 79,000 tested, about 15% had one in any assay.
Listed here: items and their measured growth inhibition.
reported.metric: growth inhibition (%)

>>> measured_number("O=C1NC(=O)C(C(=O)C(=O)Nc2cc(Cl)ccc2Cl)C(=O)N1")
-20.6
>>> measured_number("N#CC1C(=O)c2ccccc2C1=O")
1.6
>>> measured_number("O=C(O)C(=O)C(Cl)Br (stereo not drawn)")
-2.5
>>> measured_number("CC12CCC3C(CC=C4CC(SC(=N)N)CCC43C)C1CCC2=O (stereo not drawn)")
75.5
>>> measured_number("CC(=O)CC(C)=O.CC(=O)CC(C)=O.[Ni]")
-1.1
>>> measured_number("C[C@]12C=CC(=O)C=C1CC[C@@H]1[C@@H]2C(=O)C[C@]2(C)C(=O)CC[C@@H]12")
2.05
>>> measured_number("C[N+](C)(C)CC1CCCCCCCCCCC1=O (stereo not drawn)")
-25.2
>>> measured_number("CC(=O)[O][Sn]([c]1ccccc1)([c]1ccccc1)[c]1ccccc1")
93.6
>>> measured_number("CN(C)P(=S)(N(C)C)N1CCOCC1")
6.55
>>> measured_number("CCOC(=O)C(CCc1ccc(N(CCCl)CCCl)cc1)(NC(C)=O)C(=O)OCC")
8.65
>>> measured_number("[CH3][Sn]([CH3])([CH3])[S]C(=S)N1CCOCC1")
98.2
>>> measured_number("CC(C)CCN(CCC(C)C)CC(O)c1ccc(Br)cc1 (stereo not drawn)")
6.1
>>> measured_number("CN(CCCl)Cc1ccc(OCc2ccccc2)c(OCc2ccccc2)c1")
99.7
>>> measured_number("O=[N+]([O-])c1ccc(/C=N\\NP(Br)(c2ccccc2)(c2ccccc2)c2ccccc2)cc1")
26.9
>>> measured_number("c1ccc(C2(N3CCC4(CC3)OCCO4)CCCCC2)cc1")
9.2
>>> measured_number("COc1cccc2c1C(=O)c1c(O)c3c(c(O)c1C2=O)CC(O)(C(C)=O)CC3OC1CC([N+](C)(C)C)C(O)C(C)O1 (stereo not drawn)")
97.9
>>> measured_number("COc1cc(CCN(C)C)c([N+](=O)[O-])cc1OC")
19.3
>>> measured_number("COc1cccc(N2C(=O)C3C(C2=O)C2(Cl)C(Cl)=C(Cl)C3(Cl)C2(Cl)Cl)c1 (stereo not drawn)")
53.5
>>> measured_number("C[CH2][Sn]([CH2]C)([O]C(=O)c1ccc(F)cc1)[O]C(=O)c1ccc(F)cc1")
38.5
>>> measured_number("C=CCC1(/C(=C\\CC)CCC)C(=O)NC(=O)NC1=O")
1.75
>>> measured_number("O=C1C=CC(=O)C(Cl)=C1")
96.2
>>> measured_number("C(=C/P(c1ccccc1)c1ccccc1)/P(c1ccccc1)c1ccccc1")
1.9
>>> measured_number("CC(=O)O/C=C(/C=C/OC(C)=O)C(C/C=C(\\C)C#CC=C(C)C)OC(C)=O (stereo not drawn)")
0.8

----------
Test: NCI Yeast Anticancer Drug Screen. Data for the bub3 strain (AID 167)
Conditions: S. cerevisiae bub3 mutant strain, at 50.0 µM, active compounds read high
This is part of a sample that, as a whole, favours compounds with a hit. Of some 79,000 tested, about 15% had one in any assay.
reported.metric: growth inhibition (%)

>>> measured_number("Cc1ccc2c(c1)N(CCN(CCCl)CCCl)c1c(ccc3ccccc13)S2")
34.7
>>> measured_number("O=[N+]([O-])c1ncc[nH]1")
8.2
>>> measured_number("Cc1ccc2ccccc2c1")
2.4
>>> measured_number("CNc1cc(Cl)c(C#N)c(Cl)c1")
-24.6
>>> measured_number("N#CC(C#N)c1ccccc1")
8.75
>>> measured_number("CCCCCCCC[As](C)(=O)O")
-12.1
>>> measured_number("C/C=C1/C(=O)O[C@]23C=C[C@@H]4C(C(=O)OC)=CO[C@H](O[C@@H]12)[C@@H]43")
92.5
>>> measured_number("NC(=O)c1c([N+](=O)[O-])ccc(N(CCCl)CCCl)c1[N+](=O)[O-]")
-5
>>> measured_number("COC(=O)[C@]1(C)CCC[C@]2(C)[C@H]3CC4OO[C@@]3(CC[C@H]21)[C@H]1O[C@@]41C(C)C")
91.8
>>> measured_number("Oc1cc(Cl)c(Cl)cc1Cl.[Cu+2]")
99
>>> measured_number("[Cl][Pt][Cl].[NH-]NC(=O)c1ccncc1")
2.35
>>> measured_number("CN1CCc2c([nH]c3ccccc23)C1")
1.2

The values you see were collected from PubChem BioAssay (NCI).
